assay: logP determination via retention times, calibrated with unbranched alkan-2-ones; format: physicochemical; details: HPLC on reversed-phase C18, method *: 40° C., 0.1% aqueous formic acid and acetonitrile, linear gradient 10% to 95% acetonitrile
Marks after values point to notes of the source that are not given here.
measured.metric: logP

- compound: "FC(F)C(F)(F)Oc1ccccc1Nc1ncc(Cl)c(NC2CC2)n1 [compound 896]"
  logP: "3.14*"
- compound: "Fc1cc(C(F)(F)F)ccc1Nc1ncc(Cl)c(NC2CC2)n1 [compound 934]"
  logP: "3.68*"
- compound: "CC(=O)c1ccc(Nc2ncc(Cl)c(NCC3CC3)n2)cc1 [compound 678]"
  logP: "2.13*"
- compound: "CSc1cccc(Nc2ncc(Br)c(NC3CC3)n2)c1 [compound 121]"
  logP: "2.44*"
- compound: "CCOC(=O)Nc1ccc(Nc2ncc(Cl)c(NC3CC3)n2)cc1 [compound 977]"
  logP: "1.63*"
- compound: "Oc1cccc(Nc2ncc(Cl)c(NCC3CC3)n2)c1 [compound 681]"
  logP: "1.49*"
- compound: "N#CCc1cccc(Nc2ncc(Cl)c(NC3CC3)n2)c1 [compound 712]"
  logP: "1.66*"
- compound: "CSc1ccccc1Nc1ncc(Cl)c(NC2CC2)n1 [compound 880]"
  logP: "2.18*"

Per the record, Oc1ccc(Nc2ncc(Br)c(NC3CC3)n2)cc1F [compound 764] has logP of 1.41*

The compound CCC(=O)Nc1ccc(Nc2ncc(Cl)c(NC3CC3)n2)cc1 [compound 711] showed logP equal to 1.24*
